The values you see were collected from patent US7202265B2.

Tested on: human MET
Assay Details: MET biochemical kinase assay
Set-up: concentration or dose not given beside the values
Readout: Met Kinase % Inhibition

[[record]]
molecule = "COc1c(C(C)C)cc(C=C2C(=O)Nc3ccc(Br)c(C)c32)cc1C(C)C [10732/C03]"
observed_value = "14.0%"

[[record]]
molecule = "Cn1cc(Cl)c(C=C2C(=O)Nc3ccc(I)cc32)n1 [10721/B03]"
observed_value = "70.8%"

[[record]]
molecule = "CC(C)(C)c1cc(C=C2C(=O)Nc3ccc(S(=O)(=O)Nc4ccc(C(F)(F)F)cc4)cc32)cc(Cl)c1OCc1ccccc1 [10732/E10]"
observed_value = "1.6%"

[[record]]
molecule = "O=C1Nc2ccc(S(=O)(=O)Nc3ccc(C(F)(F)F)cc3)cc2C1=Cc1cccc(Oc2ccccc2)c1 [10729/E06]"
observed_value = "−0.7%"

[[record]]
molecule = "CC(C)(C)c1cc(C=C2C(=O)Nc3c(Br)cc(Br)cc32)c(O)c(C(C)(C)C)c1 [10723/A11]"
observed_value = "60.0%"

[[record]]
molecule = "O=C1Nc2ccc(S(=O)(=O)N3CCOCC3)cc2C1=Cc1ccccc1Sc1ccc(Cl)cc1 [10727/F05]"
observed_value = "6.0%"

[[record]]
molecule = "O=C1Nc2ccc(S(=O)(=O)N3CCOCC3)cc2C1=Cc1ccc(Br)cc1 [10717/F08]"
observed_value = "64.0%"

[[record]]
molecule = "O=C1Nc2ccc(CCCl)cc2C1=Cc1ccccc1Sc1ccc(Cl)cc1 [10727/G05]"
observed_value = "7.1%"

[[record]]
molecule = "COc1c(C)cc(C=C2C(=O)Nc3ccc(CCCl)cc32)cc1C [10733/G06]"
observed_value = "0.8%"

[[record]]
molecule = "CCOc1ccc(C=C2C(=O)Nc3ccc(CCCl)cc32)cc1OC [10719/G02]"
observed_value = "−2.4%"

[[record]]
molecule = "O=C1Nc2ccc(S(=O)(=O)Nc3ccc(C(F)(F)F)cc3)cc2C1=Cc1c(F)cccc1C(F)(F)F [10728/E09]"
observed_value = "40.0%"

[[record]]
molecule = "O=C1Nc2ccc(CCCl)cc2C1=Cc1cc2c3c(c1O)CCCN3CCC2 [10724/G05]"
observed_value = "61.0%"

[[record]]
molecule = "Cc1c(Br)ccc2c1C(=Cc1nn(C)cc1Cl)C(=O)N2 [10721/C03]"
observed_value = "6.2%"

[[record]]
molecule = "O=C1Nc2ccc(S(=O)(=O)Nc3ccc(C(F)(F)F)cc3)cc2C1=Cc1ccc(C(F)(F)F)cc1 [10722/E11]"
observed_value = "84.0%"

[[record]]
molecule = "O=C1Nc2c(Br)cc(Br)cc2C1=Cc1ccccc1Sc1ccc(Cl)cc1 [10727/A05]"
observed_value = "29.0%"

[[record]]
molecule = "CN(C)c1ccc(C=C2C(=O)Nc3ccc(S(=O)(=O)Nc4ccc(C(F)(F)F)cc4)cc32)cc1 [10719/E08]"
observed_value = "80.0%"

[[record]]
molecule = "CC(C)(C)c1cc(C=C2C(=O)Nc3ccc(CCCl)cc32)ccc1O [10721/G09]"
observed_value = "5.1%"

[[record]]
molecule = "COc1ccc(C=C2C(=O)Nc3ccc(Br)c(C)c32)cc1OC [10720/C04]"
observed_value = "29.0%"

[[record]]
molecule = "CCc1cc(CC)c(C=C2C(=O)Nc3ccc(S(=O)(=O)N4CCOCC4)cc32)[nH]1 [10727/F03]"
observed_value = "22.0%"

[[record]]
molecule = "CC(C)(C)c1cc(C=C2C(=O)Nc3ccc(CCCl)cc32)cc([N+](=O)[O-])c1O [10722/G02]"
observed_value = "43.0%"

[[record]]
molecule = "COc1cccc(C=C2C(=O)Nc3ccc(S(=O)(=O)N4CCOCC4)cc32)c1OC [10727/F11]"
observed_value = "−3.0%"

[[record]]
molecule = "COc1c(I)cc(C=C2C(=O)Nc3ccc(CCCl)cc32)cc1C(C)(C)C [10732/G11]"
observed_value = "63.0%"

[[record]]
molecule = "CC(C)(C)c1cc(C=C2C(=O)Nc3ccc(CCCl)cc32)cc(C(C)(C)C)c1OCc1ccccc1 [10733/G05]"
observed_value = "1.8%"

[[record]]
molecule = "CNS(=O)(=O)c1ccc2c(c1)C(=Cc1cc([N+](=O)[O-])cc(CCl)c1O)C(=O)N2 [10721/D06]"
observed_value = "9.0%"

[[record]]
molecule = "COc1ccc(OC)c(C=C2C(=O)Nc3ccc(S(=O)(=O)Nc4ccc(C(F)(F)F)cc4)cc32)c1 [10728/E02]"
observed_value = "5.4%"

[[record]]
molecule = "COC(=O)c1[nH]c(C)c(C=C2C(=O)Nc3ccc(CCCl)cc32)c1C(=O)OC [10718/G07]"
observed_value = "52.0%"

[[record]]
molecule = "Cc1ccc(C=C2C(=O)Nc3ccc(S(=O)(=O)Nc4ccc(C(F)(F)F)cc4)cc32)o1 [10725/E04]"
observed_value = "59.0%"

[[record]]
molecule = "Cc1csc2sc(C=C3C(=O)Nc4ccc(I)cc43)c(C)c12 [10724/B11]"
observed_value = "43.0%"

[[record]]
molecule = "Cc1cc(C=C2C(=O)Nc3ccc(I)cc32)cc(C)c1O [10722/B07]"
observed_value = "48.2%"

[[record]]
molecule = "CNS(=O)(=O)c1ccc2c(c1)C(=Cc1cc(Br)cc(Br)c1O)C(=O)N2 [10734/D07]"
observed_value = "92.0%"

[[record]]
molecule = "CCOC(=O)c1cc(C=C2C(=O)Nc3ccc(Br)c(C)c32)oc1C [10718/C06]"
observed_value = "3.9%"

[[record]]
molecule = "CCOC(=O)c1cc(C=C2C(=O)Nc3ccc(CCCl)cc32)oc1C [10718/G06]"
observed_value = "61.0%"

[[record]]
molecule = "O=C1Nc2c(Br)cc(Br)cc2C1=Cc1coc2ccc(Cl)cc2c1=O [10730/A06]"
observed_value = "61.0%"

[[record]]
molecule = "O=C1Nc2ccc(S(=O)(=O)Nc3ccc(C(F)(F)F)cc3)cc2C1=Cc1c(F)cc(F)cc1F [10720/E02]"
observed_value = "18.0%"


###

Test system: human MET
Assay Details: MET biochemical kinase assay
Set-up: concentration or dose not given beside the values
Readout: Met Kinase % Inhibition (%)

[[record]]
molecule = "O=C1Nc2ccc(S(=O)(=O)N3CCOCC3)cc2C1=Cc1ccc(F)cc1C(F)(F)F [10719/F11]"
observed_value = 8.7

[[record]]
molecule = "O=C1Nc2ccc(CCCl)cc2C1=Cc1cc2ccccc2o1 [10724/G07]"
observed_value = 2.3

[[record]]
molecule = "COc1cc(OC)c(OC)cc1C=C1C(=O)Nc2ccc(S(=O)(=O)N3CCOCC3)cc21 [10730/F03]"
observed_value = "−0.6"

[[record]]
molecule = "CNS(=O)(=O)c1ccc2c(c1)C(=Cc1ccc(F)cc1Cl)C(=O)N2 [10719/D09]"
observed_value = 13.0

[[record]]
molecule = "O=C1Nc2ccc(S(=O)(=O)Nc3ccc(C(F)(F)F)cc3)cc2C1=Cc1cc([N+](=O)[O-])cc(CCl)c1O [10721/E06]"
observed_value = 81.0


###

Test system: human MET
Assay Details: MET biochemical kinase assay
Design: concentration or dose not given beside the values
One threshold, 30%, splits the recorded Met Kinase % Inhibition values: lower ones are Fulfilled, equal or higher ones are Not fulfilled.

[[record]]
line_notation = "O=CN1CCN(c2ccc(C=C3C(=O)Nc4ccc(I)cc43)cc2)CC1"
assigned_label = "Not fulfilled"

[[record]]
line_notation = "Cc1c(Br)ccc2c1C(=Cc1ccc(F)cc1Cl)C(=O)N2"
assigned_label = "Fulfilled"

[[record]]
line_notation = "COc1ccc2[nH]cc(C=C3C(=O)Nc4ccc(CCCl)cc43)c2c1"
assigned_label = "Fulfilled"

[[record]]
line_notation = "O=C1Nc2ccc(CCCl)cc2C1=Cc1ccc(F)cc1C(F)(F)F"
assigned_label = "Fulfilled"

[[record]]
line_notation = "CNS(=O)(=O)c1ccc2c(c1)C(=Cc1ccc(C(F)(F)F)cc1)C(=O)N2"
assigned_label = "Not fulfilled"

[[record]]
line_notation = "O=C1Nc2ccc(CCCl)cc2C1=Cc1ccccc1Br"
assigned_label = "Not fulfilled"

[[record]]
line_notation = "Cc1c(O)ccc(C=C2C(=O)Nc3ccc(CCCl)cc32)c1O"
assigned_label = "Fulfilled"

[[record]]
line_notation = "O=C1Nc2ccc(I)cc2C1=Cc1ccc2c(c1)Cc1ccccc1-2"
assigned_label = "Not fulfilled"

[[record]]
line_notation = "O=C1Nc2ccc(CCCl)cc2C1=Cc1c[nH]c2ccccc12"
assigned_label = "Not fulfilled"

[[record]]
line_notation = "COc1ccc(OC)c(C=C2C(=O)Nc3ccc(CCCl)cc32)c1"
assigned_label = "Fulfilled"

[[record]]
line_notation = "Cc1ccc(C=C2C(=O)Nc3ccc(CCCl)cc32)s1"
assigned_label = "Fulfilled"

[[record]]
line_notation = "CNS(=O)(=O)c1ccc2c(c1)C(=Cc1sccc1Br)C(=O)N2"
assigned_label = "Fulfilled"

[[record]]
line_notation = "O=C1Nc2ccc(S(=O)(=O)N3CCOCC3)cc2C1=Cc1ncc[nH]1"
assigned_label = "Fulfilled"

[[record]]
line_notation = "Cc1c(Br)ccc2c1C(=Cc1sccc1Br)C(=O)N2"
assigned_label = "Fulfilled"

[[record]]
line_notation = "Cn1cccc1C=C1C(=O)Nc2ccc(I)cc21"
assigned_label = "Not fulfilled"

[[record]]
line_notation = "COc1ccc(C=C2C(=O)Nc3ccc(CCCl)cc32)c(OC)c1"
assigned_label = "Fulfilled"

[[record]]
line_notation = "CCOC(=O)CCc1c(C(=O)OCC)[nH]c(C=C2C(=O)Nc3ccc(I)cc32)c1CC(=O)OCC"
assigned_label = "Not fulfilled"

[[record]]
line_notation = "CCOC(=O)CCc1c(C(=O)OCC)[nH]c(C=C2C(=O)Nc3ccc(Br)c(C)c32)c1CC(=O)OCC"
assigned_label = "Fulfilled"

[[record]]
line_notation = "O=C1Nc2ccc(CCCl)cc2C1=Cc1cc(Cl)cc(Br)c1O"
assigned_label = "Not fulfilled"

